Catalogue of variants with associated self-cleavage
B1: Twister Ribozyme (parent)
chain: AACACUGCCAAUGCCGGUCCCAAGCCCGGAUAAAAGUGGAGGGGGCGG

Variants of: B1
Assay: self-cleavage, relative activity (ratio to wild type); higher = more cleavage; co-transcriptional
REPORTED_METRIC: self-cleavage

{"columns": ["VARIANT_DESCRIPTION", "ASSAY_RESULT"],
 "data": [
  ["U12A C27A", 0.744],
  ["A30G A34U", 0.86],
  ["C8G G44U", 0.275],
  ["A32C A35U", 1.05],
  ["C20U C25U", 0.545],
  ["A23G U31G", 0.746],
  ["U12C C20A", 0.128],
  ["C3A G45U", 0.152],
  ["A10C G44A", 0.932],
  ["C27U G36U", 0.158],
  ["C25G U37A", 0.166],
  ["A2C G28A", 0.0374],
  ["A2C G43A", 0.1],
  ["G17A A33U", 0.614],
  ["G16A G39U", 0.187],
  ["U31C C46G", 0.923],
  ["C25U A34C", 0.0649],
  ["G17U C19G", 0.111],
  ["A33U G41C", 0.18],
  ["A1G U12A", 0.515],
  ["C5A U31G", 0.524],
  ["G13C G45A", 0.209],
  ["G47U G48C", 1.36],
  ["A23G A33G", 0.281],
  ["A4U G28C", 0.0611],
  ["A22U G28C", 0.548]
]}

Origin of values: the RNAGym collection of RNA variant scans (doi:10.7554/elife.80360)
